# STUDY SYSTEM: human testicular microsomal 17α-hydroxylase/C17,20-lyase (Homo sapiens)
# Construct: Testicular and prostatic microsomes were prepared as described previously
# Sequence (P05093 1-508): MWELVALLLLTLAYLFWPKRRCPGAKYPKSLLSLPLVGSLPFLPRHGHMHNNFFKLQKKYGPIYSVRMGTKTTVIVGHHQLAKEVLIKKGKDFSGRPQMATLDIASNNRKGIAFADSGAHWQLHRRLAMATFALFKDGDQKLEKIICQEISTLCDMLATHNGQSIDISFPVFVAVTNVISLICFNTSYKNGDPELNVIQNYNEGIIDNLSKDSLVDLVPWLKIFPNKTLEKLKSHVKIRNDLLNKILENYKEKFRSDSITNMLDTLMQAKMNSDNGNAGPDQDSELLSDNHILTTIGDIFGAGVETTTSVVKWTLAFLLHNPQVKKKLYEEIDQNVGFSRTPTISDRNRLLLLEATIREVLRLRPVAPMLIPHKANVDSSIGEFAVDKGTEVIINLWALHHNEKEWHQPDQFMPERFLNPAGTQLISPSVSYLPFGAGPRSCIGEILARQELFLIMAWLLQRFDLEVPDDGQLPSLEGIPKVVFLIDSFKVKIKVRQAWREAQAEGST
# MEASUREMENT DESCRIPTION: Inhibition of 17α-hydroxylase/C17,20-lyase activity in human testicular microsomes ([3H]-acetic acid release)
# EXPERIMENTAL PARAMETERS: Lineweaver-Burke slopes
pKi: −log10 of the molar value.
QUANTITY MEASURED: pKi

INSERT INTO measurements (mol, result_number) VALUES
  ('C[C@]12CCC(=O)C=C1CC[C@@H]1[C@@H]2CC[C@]2(C)C(c3ccno3)=CC[C@@H]12', 7.66);
